Sourced from paper PMC3547732

I'd appreciate it if you could supply Enthalpy of solvation ΔsolvH values for the items below.
# Assay Info: Enthalpy of solution by microreaction calorimetry
# Assay type: physicochemical
# Conditions: calculated by equation 3 from enthalpies of solution of drug and solvate in the solvent of solvation
Give just the number in kcal/mol; leave the unit off.

Tell me the measured Enthalpy of solvation ΔsolvH of CC(C)c1c(C(=O)Nc2ccccc2)c(-c2ccccc2)c(-c2ccc(F)cc2)n1CC[C@@H](O)C[C@@H](O)CC(=O)[O-].CC(C)c1c(C(=O)Nc2ccccc2)c(-c2ccccc2)c(-c2ccc(F)cc2)n1CC[C@@H](O)C[C@@H](O)CC(=O)[O-].CC(C)c1c(C(=O)Nc2ccccc2)c(-c2ccccc2)c(-c2ccc(F)cc2)n1CC[C@@H](O)C[C@@H](O)CC(=O)[O-].CC(C)c1c(C(=O)Nc2ccccc2)c(-c2ccccc2)c(-c2ccc(F)cc2)n1CC[C@@H](O)C[C@@H](O)CC(=O)[O-].CCO.O.O.[Ca+2].[Ca+2] [Solvate VII] , please. -27.902

Tell me the measured Enthalpy of solvation ΔsolvH of C1CCOC1.CC(C)c1c(C(=O)Nc2ccccc2)c(-c2ccccc2)c(-c2ccc(F)cc2)n1CC[C@@H](O)C[C@@H](O)CC(=O)[O-].CC(C)c1c(C(=O)Nc2ccccc2)c(-c2ccccc2)c(-c2ccc(F)cc2)n1CC[C@@H](O)C[C@@H](O)CC(=O)[O-].[Ca+2] [Solvate II] , please. -5.299

Tell me the measured Enthalpy of solvation ΔsolvH of CC(C)O.CC(C)c1c(C(=O)Nc2ccccc2)c(-c2ccccc2)c(-c2ccc(F)cc2)n1CC[C@@H](O)C[C@@H](O)CC(=O)[O-].CC(C)c1c(C(=O)Nc2ccccc2)c(-c2ccccc2)c(-c2ccc(F)cc2)n1CC[C@@H](O)C[C@@H](O)CC(=O)[O-].CC(C)c1c(C(=O)Nc2ccccc2)c(-c2ccccc2)c(-c2ccc(F)cc2)n1CC[C@@H](O)C[C@@H](O)CC(=O)[O-].CC(C)c1c(C(=O)Nc2ccccc2)c(-c2ccccc2)c(-c2ccc(F)cc2)n1CC[C@@H](O)C[C@@H](O)CC(=O)[O-].[Ca+2].[Ca+2] [Solvate I] , please. -2.612

Tell me the measured Enthalpy of solvation ΔsolvH of CC(C)c1c(C(=O)Nc2ccccc2)c(-c2ccccc2)c(-c2ccc(F)cc2)n1CC[C@@H](O)C[C@@H](O)CC(=O)[O-].CC(C)c1c(C(=O)Nc2ccccc2)c(-c2ccccc2)c(-c2ccc(F)cc2)n1CC[C@@H](O)C[C@@H](O)CC(=O)[O-].CCCCO.[Ca+2] [Solvate VIII] , please. -4.293

====

I'd appreciate it if you could supply Enthalpy of desolvation, ΔdesolvH from DSC values for the items below.
# Assay Info: Desolvation of solvates by DSC and TGA
# Type: physicochemical
# Conditions: from DSC
Give just the number in kcal/mol; leave the unit off.

Tell me the measured Enthalpy of desolvation, ΔdesolvH from DSC of C1CCOC1.CC(C)c1c(C(=O)Nc2ccccc2)c(-c2ccccc2)c(-c2ccc(F)cc2)n1CC[C@@H](O)C[C@@H](O)CC(=O)[O-].CC(C)c1c(C(=O)Nc2ccccc2)c(-c2ccccc2)c(-c2ccc(F)cc2)n1CC[C@@H](O)C[C@@H](O)CC(=O)[O-].[Ca+2] [Solvate II] , please. 12.3

Tell me the measured Enthalpy of desolvation, ΔdesolvH from DSC of CC(C)O.CC(C)c1c(C(=O)Nc2ccccc2)c(-c2ccccc2)c(-c2ccc(F)cc2)n1CC[C@@H](O)C[C@@H](O)CC(=O)[O-].CC(C)c1c(C(=O)Nc2ccccc2)c(-c2ccccc2)c(-c2ccc(F)cc2)n1CC[C@@H](O)C[C@@H](O)CC(=O)[O-].CC(C)c1c(C(=O)Nc2ccccc2)c(-c2ccccc2)c(-c2ccc(F)cc2)n1CC[C@@H](O)C[C@@H](O)CC(=O)[O-].CC(C)c1c(C(=O)Nc2ccccc2)c(-c2ccccc2)c(-c2ccc(F)cc2)n1CC[C@@H](O)C[C@@H](O)CC(=O)[O-].[Ca+2].[Ca+2] [Solvate I] , please. 5.784

Tell me the measured Enthalpy of desolvation, ΔdesolvH from DSC of CC(C)c1c(C(=O)Nc2ccccc2)c(-c2ccccc2)c(-c2ccc(F)cc2)n1CC[C@@H](O)C[C@@H](O)CC(=O)[O-].CC(C)c1c(C(=O)Nc2ccccc2)c(-c2ccccc2)c(-c2ccc(F)cc2)n1CC[C@@H](O)C[C@@H](O)CC(=O)[O-].CC(C)c1c(C(=O)Nc2ccccc2)c(-c2ccccc2)c(-c2ccc(F)cc2)n1CC[C@@H](O)C[C@@H](O)CC(=O)[O-].CC(C)c1c(C(=O)Nc2ccccc2)c(-c2ccccc2)c(-c2ccc(F)cc2)n1CC[C@@H](O)C[C@@H](O)CC(=O)[O-].CCO.O.O.[Ca+2].[Ca+2] [Solvate VII] , please. 25.01

Tell me the measured Enthalpy of desolvation, ΔdesolvH from DSC of CC(C)c1c(C(=O)Nc2ccccc2)c(-c2ccccc2)c(-c2ccc(F)cc2)n1CC[C@@H](O)C[C@@H](O)CC(=O)[O-].CC(C)c1c(C(=O)Nc2ccccc2)c(-c2ccccc2)c(-c2ccc(F)cc2)n1CC[C@@H](O)C[C@@H](O)CC(=O)[O-].CCO.[Ca+2] [Solvate III] , please. 10.68
